assay: in vitro; details: human, hela cells, % viability
Please use t for viability at 28.5 h, 10 µM under 90% and f for everything else, ties included.

Please review the following examples before continuing.
{"Molecule": "O=C(c1c(F)cccc1F)N1CCC(O)(c2ccccn2)CC1", "Qualitative label": "f"}
{"Molecule": "COc1ccc(C2c3c(-c4cc(C)c(C)cc4O)n[nH]c3C(=O)N2Cc2cccnc2)cc1OC (stereo not shown)", "Qualitative label": "f"}
{"Molecule": "O=C(NCc1ccccn1)c1ccccc1Nc1cccc(C(F)(F)F)c1", "Qualitative label": "t"}

Attention now shifts to the item below.
Threshold test, viability at 28.5 h, 10 µM < 90%: COc1ccc(Cl)cc1NC(=O)NCCN1CCCCC1
f
